- assay: Plasma toxicokinetics after single i.v. bolus
- Format: in vivo, Sprague-Dawley rats
- condition parameters: male, Sprague-Dawley, rat, plasma, intravenous, 1 mg/kg, Anatabine 1.0 mg/kg; male; 8 hr; read-out: Avg. Conc. rat plasma
- Procedure: Six rats (3 males and 3 females) were dosed per dose group. […] Plasma and brain homogenates were stored at −80° C. until analysis. […] Four aliquots of each dose level formulation were collected and stored at −80° C. […] The physical signs of each animal were monitored following administration of the test compound. […] Sample preparation. […] The amount of the test agent in the supernatant was determined by liquid chromatography tandem mass spectrometry (LC/MS/MS). […]
reported property: concentration at 8 h (ng/mL)
One number for each entry, in ng/mL.

concentration at 8 h for C1=CCC(c2cccnc2)NC1 (racemic) [Anatabine, 1,2,3,6-tetrahydro-[2,3′]bipyridinyl] ?
7.7

====

- assay: Plasma pharmacokinetics after oral multi-dose anatabine polacrilex
- Assay type: in vivo, Sprague-Dawley rats
- condition parameters: male, Sprague-Dawley, rat, plasma, oral, 0.2 mg/kg, Avg. Conc. of anatabine in plasma, dose group 0.2, male, 30 min
reported property: concentration at 30 min (ng/mL)
Answers are plain numbers, in ng/mL.

concentration at 30 min for C1=CCC(c2cccnc2)NC1 (racemic) [Anatabine, 1,2,3,6-tetrahydro-[2,3′]bipyridinyl] ?
33

====

- assay: Plasma toxicokinetics after single i.v. bolus
- Format: in vivo, Sprague-Dawley rats
- condition parameters: male, Sprague-Dawley, rat, plasma, intravenous, 1 mg/kg, Anatabine 1.0 mg/kg; male; 2 hr; read-out: Avg. Conc. rat plasma
reported property: concentration at 2 h (µg/mL)
Give bare numbers, in µg/mL.

concentration at 2 h for C1=CCC(c2cccnc2)NC1 (racemic) [Anatabine, 1,2,3,6-tetrahydro-[2,3′]bipyridinyl] ?
0.123

====

- assay: Plasma pharmacokinetics after oral multi-dose anatabine polacrilex
- Assay type: in vivo, Sprague-Dawley rats
- condition parameters: female, Sprague-Dawley, rat, plasma, oral, 0.2 mg/kg BW, Avg. Conc. of anatabine in plasma, dose group 0.2, female, 235 min
reported property: concentration at 235 min
Please report the result as a number followed by the unit.

concentration at 235 min for C1=CCC(c2cccnc2)NC1 (racemic) [Anatabine, 1,2,3,6-tetrahydro-[2,3′]bipyridinyl] ?
12 ng/mL

====

- assay: Plasma pharmacokinetics after oral multi-dose anatabine polacrilex
- Format: in vivo, Sprague-Dawley rats
- condition parameters: male, Sprague-Dawley, rat, plasma, oral, 0.2 mg/kg, Anatabine Concentration in rat plasma, 235 min, individual animals 1A-1D
reported property: concentration at 235 min (ng/mL)
Give bare numbers, in ng/mL.

concentration at 235 min for C1=CCC(c2cccnc2)NC1 (racemic) [Anatabine, 1,2,3,6-tetrahydro-[2,3′]bipyridinyl] ?
11

====

- assay: Plasma pharmacokinetics after oral multi-dose anatabine polacrilex
- Assay type: in vivo, Sprague-Dawley rats
- condition parameters: male, Sprague-Dawley, rat, plasma, oral, 0.2 mg/kg, Avg. Conc. of anatabine in plasma, dose group 0.2, male, 235 min
reported property: concentration at 235 min (ng/mL)
Give bare numbers, in ng/mL.

concentration at 235 min for C1=CCC(c2cccnc2)NC1 (racemic) [Anatabine, 1,2,3,6-tetrahydro-[2,3′]bipyridinyl] ?
11

====

- assay: Plasma toxicokinetics after single i.v. bolus
- Type: in vivo, Sprague-Dawley rats
- condition parameters: female, Sprague-Dawley, rat, plasma, iv, 0.75 mg/kg
reported property: AUC(0-inf) (ng·h/mL)
Numbers only, in ng·h/mL.

AUC(0-inf) for C1=CCC(c2cccnc2)NC1 (racemic) [Anatabine, 1,2,3,6-tetrahydro-[2,3′]bipyridinyl] ?
544

====

- assay: Concentration in brain extracts after single i.v. bolus
- Assay type: in vivo, Sprague-Dawley rats
- condition parameters: both sexes, Sprague-Dawley, rat, brain, intravenous, 1 mg/kg, Anatabine 1.0 mg/kg; male and female; 24 hr; read-out: Avg. Conc. rat brain, combined male and female
reported property: concentration at 24 h (ng/g)
Numbers only, in ng/g.

concentration at 24 h for C1=CCC(c2cccnc2)NC1 (racemic) [Anatabine, 1,2,3,6-tetrahydro-[2,3′]bipyridinyl] ?
2.5

====

- assay: Plasma pharmacokinetics after oral multi-dose anatabine polacrilex
- Assay type: in vivo, Sprague-Dawley rats
- condition parameters: both sexes, Sprague-Dawley, rat, plasma, po, 6 mg/kg, 6.0 mg/kg BW total p.o., after final dose, males and females combined; read-out: t1/2, terminal (converted)
reported property: half-life
Please report the result as a number followed by the unit.

half-life for C1=CCC(c2cccnc2)NC1 (racemic) [Anatabine, 1,2,3,6-tetrahydro-[2,3′]bipyridinyl] ?
4.53 h

====

- assay: Plasma toxicokinetics after single i.v. bolus
- Format: in vivo, Sprague-Dawley rats
- condition parameters: male, Sprague-Dawley, rat, plasma, iv, 1 mg/kg
reported property: Vd
Please report the result as a number followed by the unit.

Vd for C1=CCC(c2cccnc2)NC1 (racemic) [Anatabine, 1,2,3,6-tetrahydro-[2,3′]bipyridinyl] ?
3.01 L/kg

====

- assay: Plasma pharmacokinetics after oral multi-dose anatabine polacrilex
- Type: in vivo, Sprague-Dawley rats
- condition parameters: Sprague-Dawley, rat, plasma, po; 0.6 mg/kg, female rats, mean
reported property: AUC(0-inf)
Please report the result as a number followed by the unit.

AUC(0-inf) for C1=CCC(c2cccnc2)NC1 (racemic) [Anatabine, 1,2,3,6-tetrahydro-[2,3′]bipyridinyl] ?
290 ng·h/mL

====

- assay: Concentration in brain extracts after single i.v. bolus
- Format: in vivo, Sprague-Dawley rats
- condition parameters: female, Sprague-Dawley, rat, brain, intravenous, 0.75 mg/kg, Anatabine 0.75 mg/kg; female; 6 hr; read-out: Avg. Conc. rat brain
reported property: concentration at 6 h
Please report the result as a number followed by the unit.

concentration at 6 h for C1=CCC(c2cccnc2)NC1 (racemic) [Anatabine, 1,2,3,6-tetrahydro-[2,3′]bipyridinyl] ?
21 ng/g

====

- assay: Plasma toxicokinetics after single i.v. bolus
- Type: in vivo, Sprague-Dawley rats
- condition parameters: Sprague-Dawley, rat, plasma, intravenous, 0.75 mg/kg, Concentration of anatabine in rat plasma, Anatabine 0.75 mg/kg, rat plasma, 4 hr, rats of group 4
reported property: concentration at 4 h

concentration at 4 h for C1=CCC(c2cccnc2)NC1 (racemic) [Anatabine, 1,2,3,6-tetrahydro-[2,3′]bipyridinyl] ?
45 ng/mL

====

- assay: Plasma pharmacokinetics after oral multi-dose anatabine polacrilex
- Type: in vivo, Sprague-Dawley rats
- condition parameters: male, Sprague-Dawley, rat, plasma, po, 0.6 mg/kg, male rats, after first dose, mean; read-out: t1/2,0→4 (converted)
reported property: half-life (h)
Answers are plain numbers, in h.

half-life for C1=CCC(c2cccnc2)NC1 (racemic) [Anatabine, 1,2,3,6-tetrahydro-[2,3′]bipyridinyl] ?
2.05

====

- assay: Plasma toxicokinetics after single i.v. bolus
- Format: in vivo, Sprague-Dawley rats
- condition parameters: female, Sprague-Dawley, rat, plasma, intravenous, 0.1 mg/kg, Anatabine 0.1 mg/kg; female; 2 hr; read-out: Avg. Conc. rat plasma
reported property: concentration at 2 h
Please report the result as a number followed by the unit.

concentration at 2 h for C1=CCC(c2cccnc2)NC1 (racemic) [Anatabine, 1,2,3,6-tetrahydro-[2,3′]bipyridinyl] ?
6.7 ng/mL

====

- assay: Plasma toxicokinetics after single i.v. bolus
- Format: in vivo, Sprague-Dawley rats
- condition parameters: male, Sprague-Dawley, rat, plasma, intravenous, 0.75 mg/kg, Anatabine 0.75 mg/kg; male; 8 hr; read-out: Avg. Conc. rat plasma
reported property: concentration at 8 h (ng/mL)
Numbers only, in ng/mL.

concentration at 8 h for C1=CCC(c2cccnc2)NC1 (racemic) [Anatabine, 1,2,3,6-tetrahydro-[2,3′]bipyridinyl] ?
9

====

- assay: Plasma toxicokinetics after single i.v. bolus
- Assay type: in vivo, Sprague-Dawley rats
- condition parameters: female, Sprague-Dawley, rat, plasma, intravenous, 1 mg/kg, Anatabine 1.0 mg/kg; female; 1 hr; read-out: Avg. Conc. rat plasma
reported property: concentration at 1 h (ng/mL)
Answers are plain numbers, in ng/mL.

concentration at 1 h for C1=CCC(c2cccnc2)NC1 (racemic) [Anatabine, 1,2,3,6-tetrahydro-[2,3′]bipyridinyl] ?
229

====

- assay: Concentration in brain extracts after single i.v. bolus
- Format: in vivo, Sprague-Dawley rats
- condition parameters: female, Sprague-Dawley, rat, brain, intravenous, 0.1 mg/kg, Anatabine 0.1 mg/kg; female; 6 hr; read-out: Avg. Conc. rat brain
reported property: concentration at 6 h

concentration at 6 h for C1=CCC(c2cccnc2)NC1 (racemic) [Anatabine, 1,2,3,6-tetrahydro-[2,3′]bipyridinyl] ?
3.7 ng/g

====

- assay: Plasma pharmacokinetics after oral multi-dose anatabine polacrilex
- Format: in vivo, Sprague-Dawley rats
- condition parameters: female, Sprague-Dawley, rat, plasma, oral, 2 mg/kg, Anatabine Concentration in rat plasma, 270 min, individual animals 4A-4D
reported property: concentration at 270 min (ng/mL)
Answers are plain numbers, in ng/mL.

concentration at 270 min for C1=CCC(c2cccnc2)NC1 (racemic) [Anatabine, 1,2,3,6-tetrahydro-[2,3′]bipyridinyl] ?
237
